Entry source: patent US9809623B2

Molecular target: rh integrin α4β7 (Homo sapiens, UniProt P13612+P26010)
Construct: purchased R&D Systems 5397-A30
Sequence (P13612 34-977 limits assumed): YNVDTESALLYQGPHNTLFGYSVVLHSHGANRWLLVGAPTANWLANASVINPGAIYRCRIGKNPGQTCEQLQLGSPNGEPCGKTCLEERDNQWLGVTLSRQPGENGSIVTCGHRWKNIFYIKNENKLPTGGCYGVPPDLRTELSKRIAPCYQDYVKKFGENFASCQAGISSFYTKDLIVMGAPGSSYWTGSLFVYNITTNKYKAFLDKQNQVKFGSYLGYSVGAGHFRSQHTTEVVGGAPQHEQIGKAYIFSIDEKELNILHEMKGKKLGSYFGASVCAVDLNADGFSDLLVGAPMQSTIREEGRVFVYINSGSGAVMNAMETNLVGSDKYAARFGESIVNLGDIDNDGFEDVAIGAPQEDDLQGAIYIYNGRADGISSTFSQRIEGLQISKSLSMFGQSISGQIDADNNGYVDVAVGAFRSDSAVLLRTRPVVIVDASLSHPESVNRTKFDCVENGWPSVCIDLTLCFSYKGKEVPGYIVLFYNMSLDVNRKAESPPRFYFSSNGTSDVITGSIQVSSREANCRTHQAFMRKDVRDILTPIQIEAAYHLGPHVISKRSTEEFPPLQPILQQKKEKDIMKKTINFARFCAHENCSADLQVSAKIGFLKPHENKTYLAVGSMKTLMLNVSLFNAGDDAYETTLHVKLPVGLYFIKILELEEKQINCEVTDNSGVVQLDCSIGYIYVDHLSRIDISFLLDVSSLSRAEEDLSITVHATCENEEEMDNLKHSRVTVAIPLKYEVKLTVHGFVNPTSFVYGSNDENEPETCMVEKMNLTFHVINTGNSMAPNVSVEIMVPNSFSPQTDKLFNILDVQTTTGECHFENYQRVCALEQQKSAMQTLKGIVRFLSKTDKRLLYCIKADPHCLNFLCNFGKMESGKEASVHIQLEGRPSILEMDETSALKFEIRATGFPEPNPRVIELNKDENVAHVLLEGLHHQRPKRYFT
Sequence (P26010 20-723 limits assumed): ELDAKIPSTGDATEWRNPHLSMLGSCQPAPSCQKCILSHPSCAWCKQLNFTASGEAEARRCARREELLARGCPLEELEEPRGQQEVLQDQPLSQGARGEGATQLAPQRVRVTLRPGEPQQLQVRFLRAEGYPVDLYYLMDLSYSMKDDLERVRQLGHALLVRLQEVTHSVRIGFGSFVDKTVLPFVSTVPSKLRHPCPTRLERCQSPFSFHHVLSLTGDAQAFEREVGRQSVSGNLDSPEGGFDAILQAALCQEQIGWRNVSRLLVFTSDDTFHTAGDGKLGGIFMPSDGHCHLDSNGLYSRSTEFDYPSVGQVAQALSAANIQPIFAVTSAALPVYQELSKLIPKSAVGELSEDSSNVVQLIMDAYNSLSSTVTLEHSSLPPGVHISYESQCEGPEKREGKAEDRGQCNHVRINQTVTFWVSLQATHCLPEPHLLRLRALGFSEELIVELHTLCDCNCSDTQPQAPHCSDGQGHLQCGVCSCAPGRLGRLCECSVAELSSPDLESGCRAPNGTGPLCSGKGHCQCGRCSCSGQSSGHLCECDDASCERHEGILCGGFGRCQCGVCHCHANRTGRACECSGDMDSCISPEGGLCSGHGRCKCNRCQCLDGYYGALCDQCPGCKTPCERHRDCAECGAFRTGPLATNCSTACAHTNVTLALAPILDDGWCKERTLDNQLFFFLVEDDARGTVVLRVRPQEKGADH
Test: α4β7-MAdCAM Competition ELISA
Type: binding
Details: Table 3-B, Potency (α4β7); range classes; read-out: α4β7 ELISA IC50
Protocol: A nickel coated plate (Pierce #15442) was coated with rh integrin α4β7 (R&D Systems #5397-A30) at 800 ng/well and incubated at room temperature with shaking for 1 hr. […] The reaction was stopped with 2N H2SO4 and absorbance was read at 450 nm. TMB is a chromogenic substrate suitable for use in ELISA procedures, which utilize horseradish peroxidase conjugates. This substrate produces a soluble end product that is blue in color and can be read spectrophotometrically at 370 or 655 nm. […]
Bridge positions count the residues as written; N and C are the ends. Square brackets hold non-standard residues; d marks the D form. Peptide text beside a SMILES is read from it. 1Nal = N[C@@H](Cc1cccc2ccccc12)C(=O)O; 2Nal = N[C@@H](Cc1ccc2ccccc2c1)C(=O)O; NMeR = CN[C@@H](CCCNC(=N)N)C(=O)O; Pen = CC(C)(S)[C@H](N)C(=O)O; dNMeK = CN[C@H](CCCCN)C(=O)O

COMPOUND: CC(=O)N[C@@H]1C(=O)N(C)[C@@H](CCCNC(=N)N)C(=O)N[C@@H](CO)C(=O)N[C@@H](CC(=O)O)C(=O)N[C@@H]([C@@H](C)O)C(=O)N[C@@H](CC(C)C)C(=O)N[C@H](C(=O)N[C@@H](Cc2ccc3ccccc3c2)C(=O)N[C@H](CCCCN)C(N)=O)C(C)(C)SSC1(C)C [compound 88] (Ac-[Pen][NMeR]SDTL[Pen][2Nal][dK]-NH2; disulfide 1-7)
TARGET_SYSTEM: rh integrin α4β7 (Homo sapiens, UniProt P13612+P26010)
IC50: 0.01 to 0.025 µM
//
COMPOUND: CC(=O)N[C@@H]1C(=O)N(C)[C@@H](CCCNC(=N)N)C(=O)N[C@@H](CO)C(=O)N[C@@H](CC(=O)O)C(=O)N[C@@H]([C@@H](C)O)C(=O)N[C@@H](CC(C)C)C(=O)N[C@H](C(=O)N[C@@H](Cc2cccc3ccccc23)C(=O)N[C@@H](CCC(=O)O)C(=O)N(C)[C@H](CCCCN)C(N)=O)C(C)(C)SSC1(C)C [compound 18] (Ac-[Pen][NMeR]SDTL[Pen][1Nal]E[dNMeK]-NH2; disulfide 1-7)
TARGET_SYSTEM: rh integrin α4β7 (Homo sapiens, UniProt P13612+P26010)
IC50: 0.01 to 0.025 µM
//
COMPOUND: CC(=O)N[C@@H]1C(=O)N(C)[C@@H](CCCNC(=N)N)C(=O)N[C@H](CC(=O)O)C(=O)N[C@@H](CC(=O)O)C(=O)N[C@@H]([C@@H](C)O)C(=O)N[C@@H](CC(C)C)C(=O)N[C@H](C(=O)N[C@@H](Cc2c[nH]c3ccccc23)C(=O)N[C@@H](CCC(=O)O)C(=O)N[C@H](CCCCN)C(N)=O)C(C)(C)SSC1(C)C [compound 48] (Ac-[Pen][NMeR][dD]DTL[Pen]WE[dK]-NH2; disulfide 1-7)
TARGET_SYSTEM: rh integrin α4β7 (Homo sapiens, UniProt P13612+P26010)
IC50: 1 to 10 µM

###

experiment: Simulated Intestinal Fluid (SIF) Stability Assay; type: in vitro ADME, porcine; details: pig, simulated intestinal fluid (SIF) with 1% porcine pancreatin, pH 6.5, Table 3-B; > means experiment was stopped at that time and half life was not reached; read-out: Stabilty SIF t1/2
Bridge positions count the residues as written; N and C are the ends. Square brackets hold non-standard residues; d marks the D form. Peptide text beside a SMILES is read from it. Phe(4-tBu) = CC(C)(C)c1ccc(C[C@H](N)C(=O)O)cc1; NMeR = CN[C@@H](CCCNC(=N)N)C(=O)O; β3hE = N[C@@H](CCC(=O)O)CC(=O)O; Pen = CC(C)(S)[C@H](N)C(=O)O; Dab = NCC[C@H](N)C(=O)O; Dap = NC[C@H](N)C(=O)O
RESULT_TYPE: half-life at 22 μM

COMPOUND: CC(=O)N[C@@H]1C(=O)N(C)[C@@H](CCCNC(=N)N)C(=O)N[C@@H](CO)C(=O)N[C@@H](CC(=O)O)C(=O)N[C@@H]([C@@H](C)O)C(=O)N[C@@H](CC(C)C)C(=O)N[C@H](C(=O)N[C@@H](Cc2c[nH]c3ccccc23)C(=O)N[C@@H](CCC(=O)O)C(=O)O)C(C)(C)SSC1(C)C [compound 128] (Ac-[Pen][NMeR]SDTL[Pen]WE-OH; disulfide 1-7)
REPORTED_RESULT: 3 h
--
COMPOUND: CC(=O)N[C@@H]1C(=O)N(C)[C@@H](CCCNC(=N)N)C(=O)N[C@@H](CO)C(=O)N[C@@H](CC(=O)O)C(=O)N[C@@H](CC(=O)O)C(=O)N[C@@H](CC(C)C)C(=O)N[C@H](C(=O)N[C@@H](Cc2c[nH]c3ccccc23)C(=O)N[C@@H](CCC(=O)O)C(=O)N[C@H](CCCCN)C(N)=O)C(C)(C)SSC1(C)C [compound 46] (Ac-[Pen][NMeR]SDDL[Pen]WE[dK]-NH2; disulfide 1-7)
REPORTED_RESULT: > 3 h
--
COMPOUND: CC(=O)N[C@@H]1C(=O)N(C)[C@@H](CCCNC(=N)N)C(=O)N[C@@H](CO)C(=O)N[C@@H](CC(=O)O)C(=O)N[C@@H]([C@@H](C)O)C(=O)N[C@@H](CC(C)C)C(=O)N[C@H](C(=O)N[C@@H](Cc2c[nH]c3ccccc23)C(=O)N[C@H](CCC(=O)O)C(=O)N[C@@H](CN)C(N)=O)C(C)(C)SSC1(C)C [compound 55] (Ac-[Pen][NMeR]SDTL[Pen]W[dE][Dap]-NH2; disulfide 1-7)
REPORTED_RESULT: > 3 h
--
COMPOUND: CC(=O)N[C@@H]1C(=O)N(C)[C@@H](CCCNC(=N)N)C(=O)N[C@@H](CO)C(=O)N[C@@H](CC(=O)O)C(=O)N[C@@H]([C@@H](C)O)C(=O)N[C@@H](CC(C)C)C(=O)N[C@H](C(=O)N[C@@H](Cc2ccc(C(C)(C)C)cc2)C(=O)N[C@@H](CCC(=O)O)CC(N)=O)C(C)(C)SSC1(C)C [compound 165] (Ac-[Pen][NMeR]SDTL[Pen][Phe(4-tBu)][β3hE]-NH2; disulfide 1-7)
REPORTED_RESULT: > 3 h
--
COMPOUND: CC(=O)N[C@@H]1C(=O)N(C)[C@@H](CCCNC(=N)N)C(=O)N[C@@H](CO)C(=O)N[C@@H](CC(=O)O)C(=O)N[C@@H]([C@@H](C)O)C(=O)N[C@@H](CC(C)C)C(=O)N[C@H](C(=O)N[C@@H](Cc2c[nH]c3ccccc23)C(=O)N[C@H](CCC(=O)O)C(=O)N[C@@H](CCN)C(N)=O)C(C)(C)SSC1(C)C [compound 56] (Ac-[Pen][NMeR]SDTL[Pen]W[dE][Dab]-NH2; disulfide 1-7)
REPORTED_RESULT: > 3 h

###

assay: Simulated Intestinal Fluid (SIF) Stability Assay; assay type: in vitro ADME, porcine; conditions: pig, simulated intestinal fluid (SIF) with 1% porcine pancreatin, pH 6.5, Table 4-C, t1/2; > means assay stopped at that time; read-out: SIF (porcine) Min
Bridge positions count the residues as written; N and C are the ends. Square brackets hold non-standard residues; d marks the D form. Peptide text beside a SMILES is read from it. 2Nal = N[C@@H](Cc1ccc2ccccc2c1)C(=O)O; NMeR = CN[C@@H](CCCNC(=N)N)C(=O)O; Pen = CC(C)(S)[C@H](N)C(=O)O

COMPOUND: CC(=O)N[C@@H]1C(=O)N[C@@H](CCCNC(=N)N)C(=O)N[C@@H](CO)C(=O)N[C@@H](CC(=O)O)C(=O)N[C@@H]([C@@H](C)O)C(=O)N[C@@H](CC(C)C)C(=O)N[C@H](C(=O)N[C@H](CCCCN)C(N)=O)CSSC1(C)C [compound 206, Ac-Pen-R-S-D-T-L-C-k-NH2] (Ac-[Pen]RSDTLC[dK]-NH2; disulfide 1-7)
half-life at 22 μM: 26 min
//
COMPOUND: CC(=O)N[C@H]1CSSC[C@@H](C(N)=O)NC(=O)[C@H](CC(C)C)NC(=O)[C@H]([C@@H](C)O)NC(=O)[C@H](CC(=O)O)NC(=O)[C@H](CO)NC(=O)[C@H](CCCNC(=N)N)NC1=O [compound 195, Ac-C-R-S-D-T-L-C-NH2] (Ac-CRSDTLC-NH2; disulfide 1-7)
half-life at 22 μM: < 1 min
//
COMPOUND: CC(=O)N[C@@H]1C(=O)N(C)[C@@H](CCCNC(=N)N)C(=O)N[C@@H](CO)C(=O)N[C@@H](CC(=O)O)C(=O)N[C@@H]([C@@H](C)O)C(=O)N[C@@H](CC(C)C)C(=O)N[C@H](C(=O)N[C@@H](Cc2ccc3ccccc3c2)C(=O)N[C@@H](CCC(=O)O)C(=O)N[C@H](CCCCN)C(N)=O)C(C)(C)SSC1(C)C [compound 210, Ac-Pen-N-Me-R-S-D-T-L-Pen-2-Nal-E-k-NH2] (Ac-[Pen][NMeR]SDTL[Pen][2Nal]E[dK]-NH2; disulfide 1-7)
half-life at 22 μM: > 300 min
